Target: TYK2 (Homo sapiens)
Sequence (P29597 whole entry): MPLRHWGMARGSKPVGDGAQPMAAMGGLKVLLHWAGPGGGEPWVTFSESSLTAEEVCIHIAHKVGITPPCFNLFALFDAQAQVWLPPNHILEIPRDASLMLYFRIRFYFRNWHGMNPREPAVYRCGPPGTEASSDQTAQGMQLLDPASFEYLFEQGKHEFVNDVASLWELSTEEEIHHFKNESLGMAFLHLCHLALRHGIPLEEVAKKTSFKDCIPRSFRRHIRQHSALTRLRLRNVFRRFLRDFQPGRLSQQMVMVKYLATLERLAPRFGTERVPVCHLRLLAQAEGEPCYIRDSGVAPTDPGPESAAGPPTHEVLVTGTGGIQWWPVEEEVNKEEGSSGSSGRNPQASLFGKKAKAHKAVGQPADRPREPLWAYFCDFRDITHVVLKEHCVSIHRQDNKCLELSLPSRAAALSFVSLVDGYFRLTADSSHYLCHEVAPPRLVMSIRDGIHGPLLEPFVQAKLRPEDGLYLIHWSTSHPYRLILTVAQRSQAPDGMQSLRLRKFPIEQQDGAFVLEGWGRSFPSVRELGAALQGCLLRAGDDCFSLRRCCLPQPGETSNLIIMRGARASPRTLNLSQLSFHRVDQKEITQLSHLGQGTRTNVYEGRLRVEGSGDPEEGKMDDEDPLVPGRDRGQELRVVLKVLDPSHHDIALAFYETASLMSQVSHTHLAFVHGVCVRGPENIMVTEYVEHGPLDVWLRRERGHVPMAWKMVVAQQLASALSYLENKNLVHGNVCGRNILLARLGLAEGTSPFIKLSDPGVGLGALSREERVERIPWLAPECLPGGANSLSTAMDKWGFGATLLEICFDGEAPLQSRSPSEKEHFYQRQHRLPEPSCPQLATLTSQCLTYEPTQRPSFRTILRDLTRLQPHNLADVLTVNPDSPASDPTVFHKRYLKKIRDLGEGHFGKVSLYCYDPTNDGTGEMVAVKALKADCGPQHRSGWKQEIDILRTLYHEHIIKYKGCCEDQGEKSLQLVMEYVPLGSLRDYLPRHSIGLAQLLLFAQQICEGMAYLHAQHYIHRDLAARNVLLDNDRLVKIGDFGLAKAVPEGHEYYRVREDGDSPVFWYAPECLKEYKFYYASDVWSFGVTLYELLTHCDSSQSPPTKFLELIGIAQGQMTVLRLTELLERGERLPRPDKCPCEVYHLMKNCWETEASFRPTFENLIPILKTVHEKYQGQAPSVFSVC
Assay: TYK2 kinase inhibition (Table A1)
Format: biochemical
Conditions: Table D1
Counter-ions that a name gives are not always drawn.
Quick reference for pIC50 among some compounds
Quick note: pIC50 means taking -log10 of the concentration in moles per liter.

1. NC(=O)N1CCN(c2ccc3cc2CCc2cccc(c2)Nc2ncc(Cl)c(n2)N3)CC1 [Example D87, bis(trifluoroacetate)] : 7.52

What is its pIC50 for TYK2 (Homo sapiens)? Entry: O=C(C[C@@H]1CCN(c2nc3ccccc3s2)C1)Nc1ccc2cc1CCc1cncc(c1)Nc1ncc(Cl)c(n1)N2 [Example D137, tris(trifluoroacetate)]
7.18

Form field: pIC50 recorded for O=C(COc1ccc2cc1CCc1cncc(c1)Nc1ncc(Cl)c(n1)N2)N1CCN(C(=O)c2ccno2)CC1 [Example D260, bis(trifluoroacetate)] with TYK2 (Homo sapiens) (enter value)
6.54

GET /values?readout=pIC50&system=TYK2 (Homo sapiens)&item= Clc1cnc2nc1Nc1cccc(c1)OCCc1cc(cc(-c3ccncc3)c1)N2 [Example D25, bis(trifluoroacetate)]
8.68

Quick check: pIC50 on TYK2 (Homo sapiens), item O=C(Nc1cc2cc(c1)OCCSc1cccc(c1)Nc1nc(ncc1Cl)N2)c1ccc2occc2c1 [Example D61, trifluoroacetate] ?
8.10

Observed pIC50 on TYK2 (Homo sapiens) for Clc1cnc2nc1Nc1cccc(c1)OCCNc1cccc(c1)N2 [Example D70, bis(trifluoroacetate)] , please.
8.30

For TYK2 (Homo sapiens), provide pIC50 of Cc1cc(C(=O)N2CC(CC(=O)Nc3ccc4cc3CCc3cncc(c3)Nc3ncc(Cl)c(n3)N4)C2)no1 [Example D143, bis(trifluoroacetate)] please.
6.52

Request - read-out pIC50 | tested on TYK2 (Homo sapiens) | compound CN1c2cccc(c2)OCCc2cccc(c2)Nc2ncc(Cl)c1n2 [Example D9, trifluoroacetate]
6.86

What measured pIC50 is associated with O=C(C[C@H]1CCCNC1)Nc1ccc2cc1CCc1cccc(c1)Nc1ncc(Cl)c(n1)N2 on TYK2 (Homo sapiens)?
8.21

Lab request: please report pIC50 under test system TYK2 (Homo sapiens) for Cc1cc(C(=O)N2CCC[C@@H](CC(=O)Nc3ccc4cc3CCc3cncc(c3)Nc3ncc(Cl)c(n3)N4)C2)no1 [Example D208, bis(trifluoroacetate)]
7.09

Form field - read-out: pIC50; system: TYK2 (Homo sapiens); submitted item: O=C(CC1CN(C(=O)c2c[nH]nn2)C1)Nc1ccc2cc1CCc1cncc(c1)Nc1ncc(Cl)c(n1)N2 [Example D148, bis(trifluoroacetate)]
6.38

Reported pIC50 for TYK2 (Homo sapiens), given CC(=O)N1CCC[C@H](CC(=O)Nc2ccc3cc2CCc2cccc(c2)Nc2ncc(Cl)c(n2)N3)C1 [Example D201, trifluoroacetate] ?
7.46

Field: pIC50 (TYK2 (Homo sapiens)). Entry: COC(=O)c1cc2cc(c1)OCCSc1cccc(c1)Nc1nc(ncc1Cl)N2 [Example D43, trifluoroacetate]
7.43

What value of pIC50 on TYK2 (Homo sapiens) does NS(=O)(=O)N1CCN(C(=O)COc2ccc3cc2CCc2cncc(c2)Nc2ncc(Cl)c(n2)N3)CC1 [Example D268, bis(trifluoroacetate)] have?
7.31

###

Target: human JAK2 (a.a. 828-1132) (Homo sapiens, UniProt O60674)
Construct: JAK2 (a.a. 828-1132); His tag (N); made in house; host or cells: insect cells (baculovirus)
Sequence (O60674 828-1132): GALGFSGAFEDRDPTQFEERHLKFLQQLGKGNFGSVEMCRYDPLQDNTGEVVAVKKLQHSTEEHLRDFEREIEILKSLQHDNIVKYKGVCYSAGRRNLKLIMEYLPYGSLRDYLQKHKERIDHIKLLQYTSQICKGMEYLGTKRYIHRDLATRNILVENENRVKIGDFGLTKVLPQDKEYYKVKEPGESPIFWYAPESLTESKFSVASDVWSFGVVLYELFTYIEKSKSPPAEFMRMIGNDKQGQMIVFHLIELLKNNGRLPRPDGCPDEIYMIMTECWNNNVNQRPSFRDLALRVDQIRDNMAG
Assay: In vitro JAK kinase assay (HTRF, phosphorylation of a biotinylated peptide), JAK2
Assay type: biochemical
Conditions: Table D1
OBSERVATION TYPE: IC50 (nM)
Field: numeric (nM). Do not append units.

Previously resolved entries follow.
1) O=C(C[C@H]1CCN(C(=O)c2nccs2)C1)Nc1ccc2cc1CCc1cncc(c1)Nc1ncc(Cl)c(n1)N2 [Example D110, bis(trifluoroacetate)] : 222
2) O=C(NCc1ccccc1)N1CCN(c2cc(-c3cc4cc(c3)Nc3ncc(Cl)c(n3)Nc3cccc(c3)OCC4)ccn2)CC1 [Example D45, bis(trifluoroacetate)] : 3
3) O=C(Nc1ccccc1)N1CCN(c2ccc3cc2CCc2cccc(c2)Nc2ncc(Cl)c(n2)N3)CC1 [Example D92, bis(trifluoroacetate)] : 4.9
4) NC(=O)N1CCN(C(=O)COc2ccc3cc2CCc2cncc(c2)Nc2ncc(Cl)c(n2)N3)CC1 [Example D270, bis(trifluoroacetate)] : 80

Next:
Which IC50 value is on record for O=C(C[C@@H]1CCCN(C(=O)c2ccccc2)C1)Nc1ccc2cc1CCc1cncc(c1)Nc1ncc(Cl)c(n1)N2 [Example D206, bis(trifluoroacetate)] ?
14
